Experiment: binders of probe aFSTL3 on microarray, primary screen, stem cell growth factor project, biochemical, small-molecule microarray, fluorescence 635/667 (AID 1064);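 further: measures binding of the biotinylated anti-FSTL3 antibody to printed compounds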
Settings: higher = more signal
measured parameter: composite z-score

Query: What value of composite z-score has been reported for the following molecule? Cc1ccc([C@@H]2C[C@@H](Sc3ccccc3)[C@H](C(=O)O)CN2S(=O)(=O)c2ccc(C)cc2)cc1
Result: -0.0057

Query: Which composite z-score is listed for COCCOC(=O)N1C(=O)[C@@]2(c3cc(C#Cc4ccc(OC)cc4)ccc31)[C@H](c1ccccc1OCCO)N1[C@H](c3ccccc3)[C@H](c3ccccc3)OC(=O)[C@H]1[C@@H]2C(=O)NC[C@H](O)c1ccccc1 ?
Result: -0.532

Query: State the recorded composite z-score for this entry: Cc1ccccc1C(O)C1C=CC2C(=O)N(c3ccccc3)C(=O)C2N1Nc1ccc(C(C)C)cc1 (stereo unspecified)
Result: -0.0476

Query: Give the measured composite z-score of Cc1ccc(N2C(=O)c3ccccc3[C@@H](C(=O)NC3CC3)[C@@H]2c2ccc(CO)cc2)nc1 .
Result: 1.17

Query: Query (molecule): Cc1ccc(S[C@]2(C(=O)NCCCN(C)C)CC(=O)N(Cc3cc(C(F)(F)F)cc(C(F)(F)F)c3)[C@@H]2c2ccc(CO)cc2)cc1 ; field requested: composite z-score
Result: -0.16

Query: Looking for the measured composite z-score of CN(C)C(=O)[C@@]1(CCS(=O)(=O)c2ccccc2)COC(c2ccc(OCCCO)cc2)=N1 , can you help?
Result: 0.578

* * *

Assay: PSAC antagonists in infected red cells, primary screen, cell-based, P. falciparum Indochina, OD700, 1 h (AID 1154)
Conditions: P. falciparum Indochina infected RBC osmotic lysis, higher = more signal, called active from +8 up or from −8 down
measured parameter: z-score
Number, no unit, nothing else.

Query: So what does the record say about z-score for COc1cc(NN2C(C(O)c3ccco3)C=CC3C(=O)N(c4ccccc4)C(=O)C32)cc(OC)c1OC (stereo not given) ?
Result: 0.886

Query: Requested read-out: z-score. Entry: O=C(CS)NCCCCCCNC(=O)[C@@H]1C[C@@H]2C(=O)NCC(=O)N2[C@@H]1c1cccc(OCCO)c1
Result: 3.29

Query: z-score for O=C(N1CCCCC1)[C@]1(Cc2ccccc2)N=C(c2ccc(OCCCO)cc2)O[C@@H]1c1ccccc1 ?
Result: 28

Query: Endpoint output: z-score of C[N+](C)(C)CCCCCCNC(=O)[C@@H]1C[C@@H]2C(=O)N[C@@H](Cc3ccccc3)C(=O)N2[C@@H]1c1cccc(OCCO)c1 . Value?
Result: 10.1

Query: Using the record for CN(C)CCCCCCNC(=O)[C@H]1C[C@H]2C(=O)N3CCC[C@H]3C(=O)N2[C@H]1c1ccc(O)cc1 , report its z-score.
Result: 0.89

Query: # input molecule: C=C(CCCC)/C(=C/C[C@H](OC(C)=O)c1ccccc1OCCO)c1cc(C(=O)OC)ccc1OC ; wanted: its z-score
Result: 15.1

Query: Sample C=C[C@H](OC)[C@@H](OC(=O)Nc1ccc(OC)cc1)c1ccc(O)c(F)c1 — what was its z-score?
Result: 4.19

Query: Entry COc1cc(C(O)C2C=CC3C(=O)NC(=O)C3N2Nc2ccccn2)cc(OC)c1OC (stereo not given) has what z-score?
Result: 0.0115

Query: Please look up its z-score: CC#CC(=O)Oc1ccccc1C=CC(=O)OCC
Result: 8.09

Query: Form field: reported z-score of CC(CO)N1C(=O)[C@@H]2C3C(=O)OCCC/C=C\[C@H]3OC23C=CCN(C(C)(C)C)C(=O)[C@@H]13 (stereo not given in full)
Result: 0.943

Query: Reported z-score for CN(C)CCCC[C@@H]1NC(=O)[C@@H]2C[C@H](C(=O)NCCCCCCN)[C@H](c3cccc(OCCO)c3)N2C1=O : what is it?
Result: 3.07

Query: Which z-score value belongs to C=C(/C(=C/C[C@H](OC(C)=O)c1ccc(CO)o1)c1cc(C(=O)OC)ccc1OC)C(C)C ?
Result: 2.48

Query: // returns reported z-score for input COc1ccc(CCNC(=O)[C@@]2(Sc3ccc(C)cc3)CC(=O)N(C3Cc4ccccc4C3)[C@@H]2c2ccc(CO)cc2I)cc1
Result: 10.7

Query: Quick one: z-score of O=C1C2C=CC(C(O)CCc3ccccc3)N(Nc3ccccc3F)C2C(=O)N1c1ccccc1 (stereo not given) ?
Result: 1.87

Query: Could you tell me which z-score is on file for COC(=O)[C@@]1(Cc2ccc(OC)cc2)[C@@H]2C(=CC(=O)[C@H]2CC(=O)C(=O)N2CCCC2)CN1C(=O)c1ccccc1 ?
Result: 5.48

Query: Which z-score value belongs to CC1(C)[C@@H]2CC(C(O)C3C=CC4C(=O)N(c5ccccc5)C(=O)C4N3Nc3ccc([N+](=O)[O-])cc3)=C[C@H]1C2 (stereo not given in full) ?
Result: 14.3

Query: Quick one: z-score of O=C(c1ccccc1)N1Cc2ccccc2C[C@@]2(COC(c3ccc(OCCCO)cc3)=N2)C1=O ?
Result: 15.2

Query: # query: z-score of entry COc1ccc(C#Cc2ccc3c(c2)[C@]2(C(=O)N3)[C@H](C(=O)Nc3nc4ccccc4s3)[C@H]3C(=O)O[C@H](c4ccccc4)[C@H](c4ccccc4)N3[C@@H]2c2ccc(O)cc2)cc1
Result: -0.383

Query: Report z-score for C=CCOC(=O)[C@H]1[C@@H]2C(=O)O[C@@H](c3ccccc3)[C@@H](c3ccccc3)N2[C@@H](c2ccc(OCCOC(=O)[C@H]3C[C@H]4C(=O)N[C@@H](CCCC[N+](C)(C)C)C(=O)N4[C@H]3c3ccc(O)cc3)cc2)[C@]12C(=O)Nc1ccc(I)cc12 please.
Result: 3.9

Query: Could you tell me which z-score is on file for C=CCC(OC(C)=O)[C@@H]1[C@@H](N(Cc2cc3ccccc3o2)C(=O)c2cccc3ccccc23)c2cc(OCCCO)ccc2N1C(=O)c1ccc(-c2ccccc2)cc1 (stereo not given in full) ?
Result: 1.01

Query: Would you mind telling me what z-score value was observed for CC(C)C(=C=CC[C@H](O)c1ccc(OCCO)cc1)CCO ?
Result: 9.47

Query: Find the recorded z-score belonging to CN(C)C(=O)[C@@]1(CCS(=O)(=O)c2ccccc2)COC(c2ccc(OCCCO)cc2)=N1 and report it.
Result: 25.6

Query: Fill in the blank: the reported z-score of O=C(NC1CC1)[C@@H]1c2ccccc2C(=O)N(Cc2ccccc2Cl)[C@H]1c1ccc(CO)cc1 is ____.
Result: 3.45

Query: What value of z-score has been reported for the following molecule? O=C1N(Cc2ccccc2)c2ccccc2[C@@H]2OC(c3ccc(OCCCO)cc3)=N[C@]12CCS(=O)(=O)c1ccccc1
Result: 24.7

Query: What z-score value was documented for this molecule, C=C(COC)/C(=C/C[C@@H](OC(=O)c1ccncc1)c1ccc(CO)o1)c1cc(C(=O)OC)ccc1OC ?
Result: 3.87

Query: GET /values?readout=z-score&item= CN1C(=O)C2C=CC(C(O)C#Cc3ccccc3)N(N3CCCCC3)C2C1=O (stereo not given)
Result: 1.24

Query: What does the data say about its z-score? Entry: NC(=O)N1C(=O)C2C(C1=O)C1C=C(c3ccc(CO)cc3)C2C(c2cccs2)N1Cc1cccc(OC(F)(F)F)c1 (stereo not given)
Result: 3.08

Query: Value lookup for z-score; key = C=CCN1C(=O)[C@@]2(CC=C)N=C(c3ccc(OCCCO)cc3)O[C@H]2c2ccccc21
Result: 34.5

Query: Find the recorded z-score belonging to CO[C@H]1O[C@H](CO)[C@@H](OC(=O)Nc2cccc(F)c2)[C@H](OC(=O)Nc2ccccc2)[C@@H]1OC(=O)Nc1ccccc1 and report it.
Result: 8.61

Query: Consider the molecule Oc1ccc2cc[n+](Cc3sc4ccccc4c3Cl)cc2c1 and give its measured z-score.
Result: 1.52
